Literature-derived pIC50 for Aurora kinase A (Homo sapiens) follows.
pIC50: −log10 of the molar value.
testReadout: pIC50

{"columns": ["compoundStructure", "experimentalResult"],
 "data": [
  ["COc1cc2c(Oc3ccc(NC(=O)c4ccccc4)cc3)ccnc2cc1OCCC[C@H](N)C(=O)OC1CCCC1", "5.30 to 5.70"],
  ["Cc1nc2cc(Nc3ncc(Cl)c(NC4CCN(c5ccc(C#N)cn5)CC4)n3)ccc2n1C", 6.50],
  ["Cc1cccc(-n2nc(Nc3cc(C)[nH]n3)c3ccccc3c2=O)c1", "7.00 to 9.00"],
  ["COc1cc(-c2cnc3[nH]c(=O)n([C@@H](C)c4ccccc4)c3n2)cc(OC)c1OC", "> 6.30"],
  ["Cc1c(-c2ccnc(Nc3ccc(-c4csc(CC(N)=O)n4)cc3)n2)c(C)n2c1C(=O)NCC2", "> 6.00"],
  ["OCc1cccc(Nc2nccc(-c3cccc(O)c3)n2)c1", 7.40],
  ["Oc1cccc(Nc2nccc(-c3cccc(C(F)(F)F)c3)n2)c1", 6.00],
  ["[2H]C1([2H])C([2H])([2H])C2(COc3ccc(F)c(-c4cn([C@H]5C[C@@H](N6CCN(C(C)=O)CC6)C5)c5ncnc(N)c45)c3)OC1([2H])C([2H])([2H])C2([2H])[2H]", "< 5.00"],
  ["CCCc1cc(-c2nc3cc4c(cc3[nH]2)C(C)(C)C(=O)N4C(C)C)[nH]n1", "6.30 to 8.00"]
]}

----------
pIC50: −log10 of the molar value.
Before we begin, note that these pIC50 values for Aurora kinase A (Homo sapiens) originate from several publications.
testReadout: pIC50

{"columns": ["compoundStructure", "experimentalResult"],
 "data": [
  ["N#Cc1cccc(COc2cccc(Nc3nccc(-c4nccs4)n3)c2)c1", "< 5.70"],
  ["Cc1cc(Nc2nn(Cc3csc(C)n3)c(=O)c3ccccc23)n[nH]1", "6.00 to 7.00"],
  ["O=C1Nc2ccccc2/C1=C\\c1ccc2c(/C=C/c3cccnc3)n[nH]c2c1", "> 5.30"],
  ["O=C(NCCc1cnc[nH]1)c1cc(-c2[nH]ncc2-c2cc(Cl)cc(Cl)c2)c[nH]1", "5.00 to 5.30"]
]}

----------
Literature-derived IC50 for UniProt:O14965 follows.
testReadout: IC50

{"columns": ["compound", "testSystem", "testReadout", "experimentalResult"],
 "data": [
  ["Cc1cc(-c2nc3cc4c(cc3[nH]2)NC(=O)C42CCCC2)[nH]n1", "UniProt:O14965", "IC50", "10 to 500 nM"],
  ["CCN(CC)CCOc1ccc(Nc2ncc(Cl)c(Nc3cccc4c3C(=O)NC4)n2)cc1", "UniProt:O14965", "IC50", "11 to 100 nM"],
  ["Ic1cccc(Nc2nccc(-c3nccs3)n2)c1", "UniProt:O14965", "IC50", "< 500 nM"],
  ["COc1ccc2c(c1)[C@]1(C[C@H]1c1ccc3c(/C=C/c4cc(F)c(CN(C)C)c(F)c4)n[nH]c3c1)C(=O)N2 (relative stereo)", "UniProt:O14965", "IC50", "< 100 nM"],
  ["COc1c(Nc2ncc(Cl)c(Nc3cccc4c3C(=O)NC4)n2)ccc(N2CCC(N3CCN(C)CC3)CC2)c1F", "UniProt:O14965", "IC50", "101 to 1000 nM"],
  ["CC1(C)CN(c2ccc(Nc3ncc(C(F)(F)F)c(Nc4cccc5c4C(=O)NC5)n3)c(OC(F)F)c2)CCN1", "UniProt:O14965", "IC50", "101 to 1000 nM"],
  ["Cc1c(-c2ccnc(Nc3ccc(N4CCOCC4)cc3)n2)c(C)n2c1C(=O)NCC2", "UniProt:O14965", "IC50", "< 1000 nM"],
  ["COc1cc2c(Oc3ccc(NC(=O)c4cc(C(F)(F)F)ccc4F)cc3)ccnc2cc1OCC[C@H](N)C(=O)O", "UniProt:O14965", "IC50", "2000 to 5000 nM"]
]}

----------
Several publications report pIC50 on UniProt O14965; those values are gathered here.
pIC50: −log10 of the molar value.

{"columns": ["molecule", "testSystem", "pIC50"],
 "data": [
  ["Cc1c(-c2ccnc(Nc3ccc(-c4cnco4)cc3)n2)c(C)n2c1C(=O)NCC2", "UniProt O14965", "> 6.00"],
  ["COc1cccc(Cn2c(=O)[nH]c3ncc(-c4cc(OC)c(OC)c(OC)c4)nc32)c1", "UniProt O14965", "6.00 to 6.30"],
  ["N#CCC(=O)N1CC2CC(Nc3nc(Nc4cnn(-c5ccccn5)c4)ncc3Cl)CC2C1 (centres unmarked)", "UniProt O14965", 8.10],
  ["CC(=O)N1CCN(C(=O)Cc2ccc(Nc3nccc(-c4c(C)c5n(c4C)CCNC5=O)n3)cc2)CC1", "UniProt O14965", "> 6.00"],
  ["Cc1c(-c2ccnc(Nc3ccc(-c4ccno4)cc3)n2)c(C)n2c1C(=O)NCC2", "UniProt O14965", "> 7.00"],
  ["CCCc1cc(-c2nc3cc4c(cc3[nH]2)N(CCC)C(=O)C4(C)C)[nH]n1", "UniProt O14965", "6.30 to 8.00"],
  ["Cn1cc(Nc2ncc(Cl)c(N[C@@H]3COC4C3OC[C@@H]4NS(=O)(=O)NC3CCOC3)n2)cn1 (some centres unmarked)", "UniProt O14965", 7.80],
  ["CC1(C)C(=O)Nc2cc3nc(-c4cc(C5CC5)[nH]n4)[nH]c3cc21", "UniProt O14965", "6.30 to 8.00"],
  ["COc1cc(-c2cnc3[nH]c(=O)n(C4CCc5ccccc54)c3n2)cc(OC)c1OC (centres unmarked)", "UniProt O14965", "> 6.30"],
  ["COc1cc(Nc2nccc(-c3c(C)c4n(c3C)CCNC4=O)n2)ccc1N1CCN(C(C)=O)CC1", "UniProt O14965", "> 6.00"],
  ["COc1ccc2c(c1)/C(=C\\c1ccc3c(/C=C/c4ccncc4Cl)n[nH]c3c1)C(=O)N2", "UniProt O14965", "> 5.30"]
]}

----------
Values of IC50 for Aurora kinase A (Homo sapiens, UniProt O14965), collected from a number of published sources:

{"columns": ["compound", "IC50"],
 "data": [
  ["Cc1c[nH]c(C)c1-c1ccnc(Nc2ccc(N3CC(C)OC(C)C3)cc2)n1 (stereo not drawn)", "230 nM"],
  ["COc1cc2c(Oc3ccc(NC(=O)Nc4ccccc4)cc3)ccnc2cc1OCC[C@H](N)C(=O)OC1CCCC1", "2000 to 5000 nM"],
  ["CC1(C)C(=O)N(Cc2ccccc2)c2cc3[nH]c(-c4n[nH]c5ccccc45)nc3cc21", "100 to 250 nM"],
  ["CCOC(=O)N=S(C)(=O)c1ccc2cc1NCCCCNc1nc(ncc1Br)N2 (racemic)", "27 nM"],
  ["Cc1cccc(NC(=O)Nc2cccc(-c3ccc4c(-c5cccnc5)n[nH]c4c3)c2)c1", "> 12500 nM"],
  ["COc1cc2c(Oc3ccc(NC(=O)c4ccccc4)cc3)ccnc2cc1OCC[C@@H](N)C(=O)OC1CCCC1", "2000 to 5000 nM"]
]}

----------
pIC50: −log10 of the molar value.
The molecules below each have a reported pIC50 tested on Aurora kinase A (Homo sapiens, UniProt O14965); the values come from various publications.
testReadout: pIC50

{"columns": ["compoundStructure", "testSystem", "testReadout", "experimentalResult"],
 "data": [
  ["c1ccc(Oc2cccc(Nc3nccc(-c4nccs4)n3)c2)cc1", "Aurora kinase A (Homo sapiens, UniProt O14965)", "pIC50", "5.70 to 6.30"],
  ["Oc1cccc(Nc2nccc(-c3nccs3)n2)c1", "Aurora kinase A (Homo sapiens, UniProt O14965)", "pIC50", "> 6.30"],
  ["O=C(NCc1ccncc1)c1cc(-c2[nH]ncc2-c2ccc3c(c2)OCO3)c[nH]1", "Aurora kinase A (Homo sapiens, UniProt O14965)", "pIC50", "5.00 to 5.30"],
  ["O=C1NCc2cccc(Nc3nc(Nc4ccc(N5C[C@@H]6C[C@H]5CN6)cc4OC(F)F)ncc3C(F)(F)F)c21", "Aurora kinase A (Homo sapiens, UniProt O14965)", "pIC50", "< 6.00"]
]}

----------
Collected literature values of IC50 measured for Aurora kinase A (Homo sapiens, UniProt O14965).

{"columns": ["compoundStructure", "IC50"],
 "data": [
  ["CC(=O)c1c(C)[nH]c(/C=C2\\C(=O)Nc3ccc(NS(=O)(=O)c4ccccc4)cc32)c1CCC(=O)O", "60.6 nM"],
  ["COc1cc(Nc2nccc(-c3c(C)c4n(c3C)CCNC4=O)n2)ccc1N1CCOCC1", "< 100 nM"],
  ["CCN(C)C(=O)c1cc(-c2n[nH]cc2-c2cccc(Cl)c2)c[nH]1", "< 5000 nM"],
  ["COc1cc2c(Oc3ccc(NC(=O)Nc4ccc(C(F)(F)F)cc4)cc3)ccnc2cc1OCC[C@H](N)C(=O)OC1CCCC1", "< 2000 nM"],
  ["CC(=O)Nc1cccc(C(=O)N2CCN(Cc3cccc(Nc4ncc(Cl)s4)n3)CC2)c1", "27 nM"],
  ["c1cc(Nc2nccc(-c3nccs3)n2)cc(OCc2ccc3c(c2)OCO3)c1", "< 500 nM"],
  ["Fc1c(Cl)cccc1O[C@H]1CC[C@](Cc2cccc(Nc3cc[nH]n3)n2)(c2nn[nH]n2)CC1", "0.45 nM"],
  ["Cc1cc(Nc2nn(C(C)C)c(=O)c3cc(OCc4ccccn4)ccc23)n[nH]1", "1 to 100 nM"],
  ["Cc1cc(-c2nc3cc4[nH]c(=O)n(C(C)C)c4cc3[nH]2)n[nH]1", "158 nM"],
  ["N#Cc1cc(-c2cnc3[nH]cc(C4CC4)c3c2Cl)cc(N2CCCNC2=O)c1", "78.9 nM"],
  ["N#Cc1ccc(Nc2ncc(Cl)c(Nc3ccccc3NC(=O)C3CC3)n2)cc1", "1.3 nM"]
]}
